test.details: Half life in cynomolgus monkey at 0.2 mg/kg, iv administered as cassette dose by LC/MS/MS analysis
Assay type: ADME, organism-based, Macaca fascicularis
condition.notes: in vivo
assay.metric: half-life (min)
Your answer is read as min, so omit the unit and give the number.

>  <compound>
CC(C)(O)c1cn(-c2ccc(-c3cccc(S(C)(=O)=O)c3)cc2)c(C(C)(C)c2ccccc2Cl)n1

>  <half-life [min]>
534

$$$$
>  <compound>
CC(C)(O)c1cn(-c2ccc(-c3cc(F)c(CO)c(S(C)(=O)=O)c3)cc2)c(C(C)(C)c2ccccc2Cl)n1

>  <half-life [min]>
336

$$$$

Given CC(O)c1ccc(-c2ccc(-n3cc(C(C)(C)O)nc3C(C)(C)c3ccccc3Cl)cc2)cc1S(C)(=O)=O (stereo not drawn) , state its recorded half-life.
330
